Tested on: 186277-243-T-J2-PDC complex spheroid viability;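 further: spheroids exposed to compounds for seven days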
ASSAY NAME: Anticancer human tumor 186277-243-T-J2-PDC patient-derived colon adenocarcinoma cell line growth inhibition [POLQ]; active means viability on the fitted dose curve at most 10% of control; inactive means the rest
EXPERIMENTAL PARAMETERS: second compound 0.0316 µM; first compound 0.316 µM
Give your call using only these classes: Yes = active, No = inactive

COMPOUND	CATEGORY LABEL
CC(C)n1c(=O)n(C)c2cnc3cc(F)c(-c4ccc(OCCCN5CCCCC5)nc4)cc3c21 + Nc1ccc(C#CCN(C(=O)Cc2ncc(C(F)(F)F)cc2C(F)(F)F)c2ccc(F)cc2)nn1	No
COc1ccc([C@@H](O)c2cc(-c3ncnc4cc(N5CCOCC5)ccc34)c(F)cc2Cl)nn1 + COC1C(OC(N)=O)C(O)C(Oc2ccc3c(O)c(NC(=O)c4ccc(O)c(CC=C(C)C)c4)c(=O)oc3c2C)OC1(C)C	No

What was the test verdict on O=c1[nH]cc(F)c(=O)[nH]1 + Nc1ccc(C#CCN(C(=O)Cc2ncc(C(F)(F)F)cc2C(F)(F)F)c2ccc(F)cc2)nn1 ? No

Can you check COc1ccc([C@@H](O)c2cc(-c3ncnc4cc(N5CCOCC5)ccc34)c(F)cc2Cl)nn1 + Nc1ccc(C#CCN(C(=O)Cc2ncc(C(F)(F)F)cc2C(F)(F)F)c2ccc(F)cc2)nn1 next? No

Can you check COc1cccc2c1C(=O)c1c(O)c3c(c(O)c1C2=O)CC(O)(C(=O)CO)CC3OC1CC(N)C(O)C(C)O1 (stereo unspecified) + COC1C(OC(N)=O)C(O)C(Oc2ccc3c(O)c(NC(=O)c4ccc(O)c(CC=C(C)C)c4)c(=O)oc3c2C)OC1(C)C next? Yes

Can you check COc1cccc(OCCCN)c1-c1cc(Nc2cnc(C#N)cn2)n[nH]1 + COC1C(OC(N)=O)C(O)C(Oc2ccc3c(O)c(NC(=O)c4ccc(O)c(CC=C(C)C)c4)c(=O)oc3c2C)OC1(C)C next? Yes

Can you check CCc1cc2c(N3CCc4c(cc(Cn5ccnc5)cc4-c4cn(C)nc4C(F)(F)F)C3=O)cc(C)nc2c(OC)n1 + Nc1ccc(C#CCN(C(=O)Cc2ncc(C(F)(F)F)cc2C(F)(F)F)c2ccc(F)cc2)nn1 next? No

Can you check CC1COCCN1c1cc(-c2ccnn2C)c2ccnc(-c3ccn[nH]3)c2n1 (stereo unspecified) + Cc1cccc(N(C)C(=O)C2C(O)CCN2c2nc(C)cc(C(F)(F)F)c2C#N)c1 next? Yes

Can you check COc1cc(C2c3cc4c(cc3C(OC3OC5COC(C)OC5C(O)C3O)C3COC(=O)C23)OCO4)cc(OC)c1O (stereo unspecified) + Nc1ccc(C#CCN(C(=O)Cc2ncc(C(F)(F)F)cc2C(F)(F)F)c2ccc(F)cc2)nn1 next? No

Can you check CC1COCCN1c1cc(C2(S(C)(=N)=O)CC2)nc(-c2ccnc3[nH]ccc23)n1 (stereo unspecified) + Nc1ccc(C#CCN(C(=O)Cc2ncc(C(F)(F)F)cc2C(F)(F)F)c2ccc(F)cc2)nn1 next? No

Can you check O=c1[nH]cc(F)c(=O)[nH]1 + Cc1cccc(N(C)C(=O)C2C(O)CCN2c2nc(C)cc(C(F)(F)F)c2C#N)c1 next? No
